readout: melting point

Recorded results for 3 compounds are shown here.
COc1cccc(CNc2ncnc3[nH]c(-c4ccc(CN5CCCC5)cc4)cc23)c1: 220 to 222 °C
C[C@@H](Nc1ncnc2[nH]c(-c3cccc(CN4CCOCC4)c3)cc12)c1ccccc1: 242 to 243 °C
c1ccc(COc2ccc(Nc3ncnc4[nH]c(-c5ccc(CN6CCCC6)cc5)cc34)cc2)cc1: 265 to 267 °C

# query: melting point of entry C[C@@H](Nc1ncnc2[nH]c(-c3ccc(CNC(=O)CN4CCOCC4)cc3)cc12)c1ccccc1 199 to 202 °C

###

readout: melting point

These solved cases illustrate the format of a correct answer.
CN(C)CC(=O)NCc1ccc(-c2cc3c(Nc4ccc(OCc5ccccc5)cc4)ncnc3[nH]2)cc1: 233 to 235 °C
Clc1ccccc1CNc1ncnc2[nH]c(-c3ccc(CN4CCCC4)cc3)cc12: 264 to 265 °C
CN(C)Cc1ccc(-c2cc3c(Nc4cccc(Cl)c4)ncnc3[nH]2)cc1.Cl: 280 to 283 °C
Fc1ccc(Nc2ncnc3[nH]c(-c4ccc(CN5CCCCC5)cc4)cc23)cc1Cl: 267 to 269 °C
CN(C)Cc1ccc(-c2cc3c(Nc4ccc(F)c(Cl)c4)ncnc3[nH]2)cc1: 274 to 276 °C
C[C@@H](Nc1ncnc2[nH]c(-c3ccc(CNC(=O)CCN4CCCCC4)cc3)cc12)c1ccccc1: 140 °C

Fill in the blank: the reported melting point of O=C(CN1CCCCC1)NCc1ccc(-c2cc3c(Nc4ccc(OCc5ccccc5)cc4)ncnc3[nH]2)cc1 is ____. 246 to 248 °C

Cool, now CC1CN(Cc2ccc(-c3cc4c(Nc5ccc(OCc6ccccc6)cc5)ncnc4[nH]3)cc2)CC(C)N1 (centres unmarked) 269 to 271 °C

Cool, now Fc1ccc(Nc2ncnc3[nH]c(-c4cccc(CN5CCCC5)c4)cc23)cc1Cl 238 to 240 °C

Similarly, CC1CN(Cc2ccc(-c3cc4c(Nc5ccc(F)c(Cl)c5)ncnc4[nH]3)cc2)CC(C)N1 (centres unmarked) ? 261 to 263 °C

Entry COc1cccc(CNc2ncnc3[nH]c(-c4ccc(CN5CCCCC5)cc4)cc23)c1 please 227 to 229 °C
